We begin with a simple list: items and their reported inhibition.
# STUDY SYSTEM: L-lactate dehydrogenase (Plasmodium falciparum (isolate CDC / Honduras))
# ASSAY TEXT: PfLDH activity inhibition – cell lysate, 3D7 strain, counter-screen for P. falciparum growth inhibition project (AID 2304);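 also: 0% = vehicle and 100% = reference inhibitor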
# EXPERIMENTAL CONTEXT: P. falciparum 3D7 crude extract, LDH APAD/NBT absorbance; at 2 µM; active compounds read high
Reply with just the number (in %).

# count of solved cases: 4
Just so you know, measured inhibition for CN1CCC(NCc2cccc(-c3ccc(S(=O)(=O)NCCc4ccccn4)cc3)c2)CC1 came out at -1

Just so you know, measured inhibition for c1ccc2c(c1)CN(Cc1ccsc1)CC1(CCN(Cc3c[nH]c4cnccc34)CC1)O2 came out at -2

Just so you know, measured inhibition for CCn1c(SCc2ccc(F)cc2)nc2sc3c(c2c1=O)CCN(C)C3 came out at 3

Just so you know, measured inhibition for COc1cccc(NC(=O)c2cc(Br)cc(N3CCN(c4ccncc4)CC3)c2)c1 came out at 0

Continuing:
Just so you know, measured inhibition for O=C(NCCc1ccccc1)[C@H](Cc1ccccc1)Nc1ccnc(NCC2CCCCC2)n1 came out at 2
